Recorded values, source patent US20170166555A1.

- Tested on: CaCo2 colorectal cancer cells
- assay-remarks: Anti-proliferative assay, cell-titre luminescent reagent, 72 h (GVK-BIO)
- Format: cell-based
- measurement-context: Homo sapiens, Caco-2, 72 h, 30, 3, 0.3 and 0.03 μM, linear regression (Tables 2-4)
In plain terms, low IC50, meaning strictly below 10 µM, gives true, and everything else gives false.

Here's an entry: `Cc1c(C)n(CCCN(C)C)c2ccc(Cc3cccc(C(=O)Nc4ccc5c(c4)OCO5)c3)cc12` . Is its IC50 below 10 µM?
false

Here's an entry: `COc1cccc(NC(=O)c2cccc(Nc3ccc4c(ccn4CCCN(C)C)c3)c2)c1` . Is its IC50 below 10 µM?
false

Here's an entry: `Cc1c(C)n(CCCN(C)C)c2ccc(Cc3ccc(C(=O)Nc4cccc(F)c4)cc3)cc12` . Is its IC50 below 10 µM?
false

Here's an entry: `Cc1c(C)n(CCCN(C)C)c2ccc(Nc3cccc(C(=O)Nc4ccccc4)c3)cc12` . Is its IC50 below 10 µM?
true

Here's an entry: `COc1cccc(NC(=O)c2ccc(Cc3ccc4c(ccn4CCCN(C)C)c3)cc2)c1` . Is its IC50 below 10 µM?
true

Here's an entry: `COc1cccc(NC(=O)c2ccc(Oc3ccc4c(c3)c(C)c(C)n4CCCN(C)C)cc2)c1` . Is its IC50 below 10 µM?
true

Here's an entry: `COc1cccc(NC(=O)c2cccc(Cc3ccc4c(ccn4CCCN(C)C)c3)c2)c1` . Is its IC50 below 10 µM?
true

Here's an entry: `CN(C)CCCn1ccc2cc(Nc3cccc(C(=O)Nc4ccccc4)c3)ccc21` . Is its IC50 below 10 µM?
false
